# targetOrSystem: T1, membrane LIGHT R195A (human, UniProt O43557 1-240)
# T1 chain: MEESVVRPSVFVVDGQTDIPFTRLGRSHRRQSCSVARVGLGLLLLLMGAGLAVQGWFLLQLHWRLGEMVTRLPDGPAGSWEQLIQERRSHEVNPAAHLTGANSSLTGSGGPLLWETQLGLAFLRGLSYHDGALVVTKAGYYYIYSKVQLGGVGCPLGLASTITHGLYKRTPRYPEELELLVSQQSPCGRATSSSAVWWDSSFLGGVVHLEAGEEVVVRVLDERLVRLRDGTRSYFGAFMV
# testMethodNotes: flow cytometry, transfected HEK293FF, mAb at EC50
Give measured binding, % of WT for each item. Keep answers brief.
Give the quantity in %, number only.

binding, % of WT in this record for 3C10 (antibody, human IgG4, V domains shown, chimeric human IgG4 (S-to-P, L-to-E at 248), human CL; also called Parental 3C10) VH: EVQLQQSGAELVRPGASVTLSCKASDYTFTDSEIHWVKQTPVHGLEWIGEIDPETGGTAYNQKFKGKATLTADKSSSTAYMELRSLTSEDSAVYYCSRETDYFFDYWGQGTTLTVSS VL: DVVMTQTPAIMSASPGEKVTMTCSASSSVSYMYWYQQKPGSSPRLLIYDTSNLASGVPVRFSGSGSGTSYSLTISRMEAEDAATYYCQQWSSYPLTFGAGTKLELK : 6

The binder listed as 3E09 (antibody, V domains shown, chimeric human IgG4 (S-to-P, L-to-E at 248), human CL; also called Parental 3E09) VH: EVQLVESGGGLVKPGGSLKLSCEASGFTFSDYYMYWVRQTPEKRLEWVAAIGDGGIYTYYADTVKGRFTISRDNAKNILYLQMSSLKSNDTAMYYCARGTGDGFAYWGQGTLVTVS VL: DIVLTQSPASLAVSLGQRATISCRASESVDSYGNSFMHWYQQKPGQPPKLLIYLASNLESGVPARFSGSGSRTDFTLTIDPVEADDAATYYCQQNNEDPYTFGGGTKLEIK has a reported binding, % of WT of 1

response.value for 3A07 (antibody, human IgG4, V domains shown, chimeric human IgG4 (S-to-P, L-to-E at 248), human CL; also called Parental 3A07) VH: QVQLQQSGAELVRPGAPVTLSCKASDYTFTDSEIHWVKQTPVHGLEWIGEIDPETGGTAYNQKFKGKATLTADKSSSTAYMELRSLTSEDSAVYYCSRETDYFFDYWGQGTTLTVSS VL: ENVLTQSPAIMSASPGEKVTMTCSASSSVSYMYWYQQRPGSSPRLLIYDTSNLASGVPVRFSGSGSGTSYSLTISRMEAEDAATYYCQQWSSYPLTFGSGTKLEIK (field: binding, % of WT) = 15

Noted for 3D12 (antibody, human IgG4, V domains shown, chimeric: mouse variable domains on human IgG4 HC (S-to-P and L-to-E at 248) and human CL; also called Parental 3D12; 3D12 chimeric) VH: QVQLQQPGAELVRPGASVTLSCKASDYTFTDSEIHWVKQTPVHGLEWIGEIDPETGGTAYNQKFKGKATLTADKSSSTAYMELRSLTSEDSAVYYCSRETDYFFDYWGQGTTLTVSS VL: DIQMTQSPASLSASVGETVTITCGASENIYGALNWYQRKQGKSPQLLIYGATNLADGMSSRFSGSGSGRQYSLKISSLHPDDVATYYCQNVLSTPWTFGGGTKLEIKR : its binding, % of WT reads 25
